Tested on: Plasmodium falciparum NF54 asexual blood stage
Assay: % inhibition of asexual blood stage proliferation (pLDH); higher = more inhibition
Conditions: 2 µM; 72 h
Below, each entry is listed with its recorded % inhibition of asexual blood stage proliferation.
The response must be a number in % with no trailing unit.

MOLECULE	UNITS_SYMBOL	NUMERIC_VALUE
NC(=O)c1cnc2ccc(S(=O)(=O)c3ccccc3)cc2c1Nc1ccc(O)cc1	%	29.7
CCOC(=O)/C=C/[C@H](C[C@@H]1CCNC1=O)NC(=O)[C@H](CC)n1cccc(NC(=O)c2cc(C)on2)c1=O	%	43.3
CC(C)Oc1ccc(-c2nc(-c3cccc4c3CC[C@@H]4NCCO)no2)cc1C#N	%	78.4
COc1ccc(COc2cc3oc(=O)c4cc(C(C)O)ccc4c3cc2OC)cc1 (centres undefined)	%	35.7
CC1CCc2c(N3CCC(O)CC3)c(F)cc3c(=O)c(C(=O)O)cn1c23 (centres undefined)	%	69.7
COC(=O)Nc1nc2c(C)cccc2[nH]1	%	-2.03

Exam item: % inhibition of asexual blood stage proliferation of "Fc1ccc2c(/C=C/c3cccnc3)c[nH]c2c1" on Plasmodium falciparum NF54 asexual blood stage?
Marked response: 4.51

Exam item: Short answer please: % inhibition of asexual blood stage proliferation, Plasmodium falciparum NF54 asexual blood stage, entry "Cn1cc(NC(=O)c2cc(NC(=O)c3ccc(/C=C/c4cnc5ccccc5c4)cc3)cn2C)cc1C(=O)NCCN1CCOCC1"
Marked response: 68.7

Exam item: Param readout= % inhibition of asexual blood stage proliferation; system= Plasmodium falciparum NF54 asexual blood stage; entry= "CC[C@@]1(O)C(=O)OCc2c1cc1n(c2=O)Cc2cc3c([N+](=O)[O-])cccc3nc2-1" ; returns value.
Marked response: 10.9

* * *

Test system: CHO
Assay: % viability of CHO cells (MTT); higher = less toxic
Conditions: 2 µM; 48 h
# key: entry, value: % viability of CHO cells
Respond with the bare value in %.

Below, each entry is followed by its recorded % viability of CHO cells result.
MOLECULE	% viability of CHO cells, %
FC(F)(F)Oc1ccc(Nc2ccc3cccc(Cl)c3n2)cc1	101
Nc1nnc(-c2ccc(Cl)cc2)s1	84.5
COc1nc2ccc(Br)cc2cc1[C@@H](c1ccccc1)[C@@](O)(CCN(C)C)c1cccc2ccccc12	107
COc1ccc(C2CNC(=O)C2)cc1OC1CCCC1 (stereo unspecified)	95.4

Exam item: Please look up its % viability of CHO cells: CCC(C)NCC(O)Cn1c2ccc(Cl)cc2c2cc(Cl)ccc21 (stereo unspecified)
Marked response: 112

Exam item: Fill in: % viability of CHO cells of "O=C(N[C@H](Cc1cccc2ccccc12)C(=O)NCCc1c[nH]cn1)C1Cc2ccccc2C1" is ___
Marked response: 95.1

Exam item: Which measured % viability of CHO cells value corresponds to "Fc1ccc2c(/C=C/c3cccnc3)c[nH]c2c1" ?
Marked response: 107

Exam item: Data request, read-out % viability of CHO cells, for "COc1ccccc1NC(=O)c1ccccc1Sc1ccc([N+](=O)[O-])cc1"
Marked response: 85.2

* * *

Listed below: % viability of CHO cells values for each entry.
System: CHO
Experiment: % viability of CHO cells (MTT); higher = less toxic
Conditions: 20 µM; 48 h
Kindly answer with a numeric value in %, unit omitted.

Would you please look over these solved cases?
COMPOUND	UNITS_SYMBOL	NUMERIC_VALUE
CCc1cc(CCC(=O)Nc2ccccc2O)c(=O)[nH]c1C	%	106
CC(=O)Oc1ccccc1C(=O)Nc1ncc([N+](=O)[O-])s1	%	111
CCCCc1ccc(S(=O)(=O)Nc2cc(C)on2)cc1	%	124
COc1c(F)c(F)cc2c(=O)c(C(=O)O)cn(C3CC3)c12	%	80.7

Exam item: Sample "CCc1cc(O)c(Oc2ccc(C(N)=O)cc2F)cc1F" — what was its % viability of CHO cells?
Marked response: 100

Exam item: I am curious: what % viability of CHO cells value has been reported for "O=C1[C@H](CC[C@H](O)c2ccc(F)cc2)[C@@H](c2ccc(O)cc2)N1c1ccc(F)cc1" ?
Marked response: 113

Exam item: Query: % viability of CHO cells; subject: "CCOC(=O)/C=C/[C@H](C[C@@H]1CCNC1=O)NC(=O)[C@H](CC)n1cccc(NC(=O)c2cc(C)on2)c1=O"
Marked response: 79.7

Exam item: Item "O=S(=O)(Nc1cccc2cccnc12)c1ccccc1" has what recorded % viability of CHO cells?
Marked response: 121

Exam item: State the recorded % viability of CHO cells for this entry: "CCNC(=O)Nc1cn2c(-c3ncc(CC)cn3)cc(-c3cccnc3)cc2n1"
Marked response: 58.4

Exam item: Please look up its % viability of CHO cells: "Nc1nc(O)c2ncn(COCCO)c2n1"
Marked response: 121

Exam item: What value of % viability of CHO cells has been reported for the following compound? "Nc1nc(Nc2ccc3nc(-c4ccc(F)cc4)cc(N)c3c2)cc(-c2ccccc2)n1"
Marked response: -8.47

Exam item: Quick one: % viability of CHO cells of C/C(=N\NC(=O)C1CC1c1ccccc1)c1ccc(NC(=O)c2ccco2)cc1 (centres undefined) ?
Marked response: 69.1

Exam item: Quick one: % viability of CHO cells of "CN(C/C=C/C#CC(C)(C)C)Cc1cccc2ccccc12" ?
Marked response: 117

Exam item: Using the record for "CC[C@H]1OC(=O)[C@H](C)[C@@H](O[C@H]2C[C@@](C)(OC)[C@@H](O)[C@H](C)O2)[C@H](C)[C@@H](O[C@@H]2O[C@H](C)C[C@H](N(C)C)[C@H]2O)[C@](C)(O)C[C@@H](C)C(=O)[C@H](C)[C@@H](O)[C@]1(C)O" , report its % viability of CHO cells.
Marked response: 55.1
